System: HEK-293T
Procedure Summary: Multiplex assay against HEK293T
Assay type: toxicity, cell-based
Settings: human, 24 h, 10 µM, compound concentration 10 uM, replicate 1
Population Healthy Nuclei (%) values, listed per item
Respond with the bare value in %.

Below, 3 compounds whose answers are already recorded.
{"columns": ["Substance Smiles", "Population Healthy Nuclei (%)"],
 "data": [
  ["CC(C)(C)c1cc(NC(=O)Nc2ccc(-c3cn4c(n3)sc3cc(OCCN5CCOCC5)ccc34)cc2)no1", 79],
  ["CCCCC1=NC2(CCCC2)C(=O)N1Cc1ccc(-c2ccccc2-c2nnn[nH]2)cc1", 77],
  ["CCCOc1ccc2[nH]cc(C3=CCNCC3)c2n1.Cl", 74]
]}

Summary for this compound, CC(=O)Nc1cccc2c1c(Sc1ccc(Cl)cc1)c(C)n2CC(=O)O : Population Healthy Nuclei (%) is 79

Summary for this compound, CC(C)COc1ccc(CNC(=O)N(Cc2ccc(F)cc2)C2CCN(C)CC2)cc1 : Population Healthy Nuclei (%) is 57

Summary for this compound, CN1CCN(c2cc(-c3ccccc3)nc(N)n2)CC1 : Population Healthy Nuclei (%) is 75

Summary for this compound, Cc1cnc(-c2cc(N3CCN(C(=O)CCS(C)(=O)=O)CC3)ncc2Cl)c(C)c1 : Population Healthy Nuclei (%) is 76
